test system: HepG2 cells; assay: Cytotoxicity in HepG2 cells (intracellular ATP, ATPlite, 48 h); format: cell-based, human; conditions: HepG2 cells; IC50 per ratio column head; unit inferred
TEST_READOUT: pIC50
Scale explanation: pIC50 corresponds to minus log10 of a concentration expressed in moles per litre.

Exercise: Which pIC50 value belongs to c1cc(C2=NC3CCCCC3N2)ccc1OCCCCCOc1ccc(C2=NC3CCCCC3N2)cc1 (centres unmarked) [TCMDC-137802] ?
Key: 5.43

Exercise: Also COc1ccc2c(c1CNCCCCCCNCc1c(OC)ccc3c1CCCC3)CCCC2 [TCMDC-137817] ?
Key: 5.42

Exercise: What would you report for O=C(/C=C/c1ccc(Cl)c(Cl)c1)NCCCCCN1CCCC(CNS(=O)(=O)c2cccc(C(F)(F)F)c2)C1 (centres unmarked) [TCMDC-139597] ?
Key: 5.42

Exercise: Then CCCCCCOc1ccc2ccccc2c1CNCCCCCCNCc1c(OCCCCCC)ccc2ccccc12 [TCMDC-137963] ?
Key: 5.48

Exercise: Request: COc1cc(Br)c(S(=O)(=O)n2cc(CN3CCC(N)CC3)c3cc(Cl)ccc32)cc1OC [TCMDC-136384]
Key: 5.17

Exercise: And CCNCc1cccc(-c2ccc3ccnc(N)c3c2)c1 [TCMDC-136869] ?
Key: 4.90

Exercise: Then this compound: CCc1cc(COc2ccc(CNCCC(C)C)cc2I)c(OCc2ccccc2)c(COc2ccc(CNCCC(C)C)cc2I)c1 [TCMDC-137255]
Key: 5.24

Exercise: Please give the result for CC(C)(C)OC(=O)NCc1ccc(Nc2nnc(-c3ccc(OCC(=O)NCc4ccc(C(C)(C)C)cc4)c([N+](=O)[O-])c3)o2)cc1 [TCMDC-134991] too.
Key: 5.50

* * *

Listed compounds paired with reported inhibition at 5 µM
test system: P. falciparum stage V gametocytes; experiment: microbe, parasite or virus in culture; design: BacTiter-Glo ATP luminescence viability of purified stage V gametocytes in 384-well plates, per cent inhibition versus DMSO; settings: Plasmodium falciparum, 48 h, read-out: % Inhibition
Hi! Could you send only the number? It should be in %, unit omitted.

Exercise: For the compound shown here, CCCCNC(c1ccc(Cl)cc1)C(O)c1ccc(Cl)cc1 (stereo not drawn) , give the reported inhibition at 5 µM.
Key: -29.7

# context switch: different compound, same inhibition at 5 µM
Exercise: Please look up its inhibition at 5 µM: `Cc1cc(NN=Cc2cccc(F)c2)c2ccc(F)cc2n1`
Key: -36.6

* * *

test system: P. falciparum stage V gametocytes; test: Gametocytocidal ATP bioluminescence assay (single point 5 μM and 1 μM, dose-response); assay type: cell-based, Plasmodium falciparum; details: Plasmodium falciparum; P. falciparum gametocytes; average; read-out: IC50 Pf Gametocytes average, IC50 (µM) average
Each record here notes measured log10(IC50).
Heads up: the numbers are on a log10 scale; they represent IC50 in µM.

Consider the worked cases shown below.
Exercise: // query log10(IC50) value for entry `FC(F)(F)c1ccc2[nH]c(-c3cccc(-c4ccc(CNCCN5CCNCC5)cc4)c3)nc2c1`
Key: -0.07

Exercise: Repeat with `c1cc(CNCCN2CCNCC2)cc(-c2cccc(-c3nc4ccccc4[nH]3)c2)c1`
Key: -0.15

Exercise: And for `N=C(N=C(NCCCCCCNC(=NC(=N)NCc1ccc(Cl)c(Cl)c1)N1CCCCC1)N1CCCCC1)NCc1ccc(Cl)c(Cl)c1` ?
Key: -0.43

Exercise: And for `Ic1cc(CNC2CCCCC2)ccc1OCc1cccc(COc2ccc(CNC3CCCCC3)cc2I)c1` ?
Key: -0.48

Exercise: What do you have for `COc1ccc(-c2cc(-c3ccc(S(C)(=O)=O)cc3)cnc2N)cn1` ?
Key: 0.07

New cases:
Exercise: Returns the measured log10(IC50) for the input compound. Input: `COc1cc(NCCCNCc2cn(Cc3cc(Br)cc(Br)c3)c3ccccc23)nc2ccccc12`
Key: -0.23
